Values compiled from paper PMC2572732.

Target: isolated Fes SH2 domain, wild type (human, UniProt P07332-1 460-549)
Sequence (P07332 460-549): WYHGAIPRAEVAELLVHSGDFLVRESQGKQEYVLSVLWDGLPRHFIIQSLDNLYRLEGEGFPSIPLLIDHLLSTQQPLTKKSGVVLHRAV
Experiment: FP
pKd: −log10 of the molar value. Non-standard residues stand in square brackets, D forms with d. No end group written: not given here. pY = N[C@@H](Cc1ccc(OP(=O)(O)O)cc1)C(=O)O
quantity: pKd

Measured pKd of V[pY]EPVSY [pTyr-containing peptide from ezrin (VpYEPVSY)] : ~6.40
